Reported Human GLP-1R activity (EC50 nM); cAMP HTRF in CHO-K1/GLP-1R/CRE-luc cells is given for each of the following binders.
Molecular target: human glucagon-like peptide-1 receptor (GLP-1R) (human, UniProt P43220 24-463)
Sequence (P43220 24-463): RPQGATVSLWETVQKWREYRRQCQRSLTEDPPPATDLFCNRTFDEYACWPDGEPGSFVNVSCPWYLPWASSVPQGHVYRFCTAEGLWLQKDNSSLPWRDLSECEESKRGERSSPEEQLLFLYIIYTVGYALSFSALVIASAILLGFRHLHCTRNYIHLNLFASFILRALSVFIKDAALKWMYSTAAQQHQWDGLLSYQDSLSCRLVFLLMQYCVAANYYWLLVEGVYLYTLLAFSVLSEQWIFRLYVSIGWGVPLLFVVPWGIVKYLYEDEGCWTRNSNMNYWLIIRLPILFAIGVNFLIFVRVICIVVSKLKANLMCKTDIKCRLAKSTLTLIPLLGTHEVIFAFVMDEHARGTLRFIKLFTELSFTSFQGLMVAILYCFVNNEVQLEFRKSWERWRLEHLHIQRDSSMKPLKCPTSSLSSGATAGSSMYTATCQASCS
Experiment: cell-based or functional assay
*1 amine or outer side, *2 acyl side, *3 side chain or, on linkers, in order; H or OH if unused. Where no end group is shown, it is not given here. Side-chain parts run from the residue outwards. [ ]: non-standard residue; d: D form. γGlu = O=C(O)[C@H](CCC(=O)[*:2])N[*:1]; AEEA = NCCOCCOCC(=O)O; Aib = CC(C)(N)C(=O)O
Reply with just the number (in nM).

Known results for binders:
BINDER | ENDPOINT UNIT | RESULT NUMBER
Y[Aib]EGTFTSDYSIYLEK([AEEA-AEEA-γGlu-C20‑OH])IAAQEFVNWLIAGGPSSGAPPPS-NH2 [compound 9#] | nM | 0.049
Y[Aib]EGTFTSDYSIYK([AEEA-AEEA-γGlu-C20‑OH])EKIAAQEFINWLIAGGPSSGAPPPS-NH2 [compound 14#] | nM | 0.013
Y[Aib]EGTFTSDYSIYLEK([AEEA-AEEA-γGlu-C20‑OH])IAAQEFINWLIAGGPSSGAPPPS-NH2 [compound 10#] | nM | 0.065

[in] Note Human GLP-1R activity (EC50 nM); cAMP HTRF in CHO-K1/GLP-1R/CRE-luc cells for the binder shown: Y[Aib]EGTFTSDYSIYK([AEEA-AEEA-γGlu-C20‑OH])EKIAAQEFVNWLLAGGPSSGAPPPS-NH2 [compound 18#]
[out] 0.013

[in] Note Human GLP-1R activity (EC50 nM); cAMP HTRF in CHO-K1/GLP-1R/CRE-luc cells for the binder shown: Y[Aib]EGTFTSDYSIYK([AEEA-AEEA-γGlu-C20‑OH])ERIAAQEFVNWLIAGGPSSGAPPPS-NH2 [compound 13#]
[out] 0.017
